- Tested on: Human immunodeficiency virus 1
- method-notes: Antiviral activities against HIV-1 replication in CEM cells and its ability to lower the viral charge supernatants was reported
- Format: functional, organism-based
- run-conditions: Human immunodeficiency virus 1, CCRF-CEM
pIC50: −log10 of the molar value.
measurement-kind: pIC50

Solved cases (2 shown):
O=C(O)c1ccc2ccc(/C=C/c3cccnc3)nc2c1O
< 4.00
Cc1ccc2ccc(C(=O)O)c(O)c2n1
< 4.00

Q: Entry `COc1ccc(/C=C/c2ccc3ccc(C(=O)O)c(O)c3n2)cc1O` has what pIC50?
A: 4.27

FYI, the data here is from ChEMBL document CHEMBL1133718.
